# Condition Description: in isopropanol, 318.15 K
Measured Parameter: solubility (mole fraction)

{"columns": ["Molecule", "Measured Parameter", "Measured Number"],
 "data": [
  ["Nc1cccc2c1C(=O)N(C1CCC(=O)NC1=O)C2=O (stereo unspecified)", "solubility (mole fraction)", "1.9e-06"]
]}

====

# Condition Description: in ethanol, 313.15 K

{"columns": ["Molecule", "solubility (mole fraction)"],
 "data": [
  ["Nc1cccc2c1C(=O)N(C1CCC(=O)NC1=O)C2=O (stereo unspecified)", "1.04e-06"]
]}

====

# Condition Description: in acetone, 283.15 K
Measured Parameter: solubility (mole fraction)

{"columns": ["Compound", "Measured Number"],
 "data": [
  ["Nc1cccc2c1C(=O)N(C1CCC(=O)NC1=O)C2=O (stereo unspecified)", "2e-06"]
]}

====

# Condition Description: in ethyl acetate, 303.15 K
Measured Parameter: solubility (mole fraction)

{"columns": ["Compound", "Measured Number"],
 "data": [
  ["Nc1cccc2c1C(=O)N(C1CCC(=O)NC1=O)C2=O (stereo unspecified)", "1.95e-06"]
]}

====

# Condition Description: in isopropanol, 293.15 K

{"columns": ["Compound", "solubility (mole fraction)"],
 "data": [
  ["Nc1cccc2c1C(=O)N(C1CCC(=O)NC1=O)C2=O (stereo unspecified)", "6.3e-07"]
]}

====

# Condition Description: in ethanol, 293.15 K

{"columns": ["Compound", "solubility (mole fraction)"],
 "data": [
  ["Nc1cccc2c1C(=O)N(C1CCC(=O)NC1=O)C2=O (stereo unspecified)", "4.1e-07"]
]}

====

# Condition Description: in ethyl acetate, 298.15 K

{"columns": ["Compound", "solubility (mole fraction)"],
 "data": [
  ["Nc1cccc2c1C(=O)N(C1CCC(=O)NC1=O)C2=O (stereo unspecified)", "1.55e-06"]
]}

====

# Condition Description: in acetone, 278.15 K
Measured Parameter: solubility (mole fraction)

{"columns": ["Compound", "Measured Parameter", "Measured Number"],
 "data": [
  ["Nc1cccc2c1C(=O)N(C1CCC(=O)NC1=O)C2=O (stereo unspecified)", "solubility (mole fraction)", "1.43e-06"]
]}

====

# Condition Description: in ethyl acetate, 308.15 K
Measured Parameter: solubility (mole fraction)

{"columns": ["Compound", "Measured Parameter", "Measured Number"],
 "data": [
  ["Nc1cccc2c1C(=O)N(C1CCC(=O)NC1=O)C2=O (stereo unspecified)", "solubility (mole fraction)", "2.38e-06"]
]}
